target desc: human cathepsin K (Homo sapiens)
Construct: The proform of cathepsin K was converted to mature cathepsin K by brief exposure to pH 4; made in house; host or cells: baculovirus; Trichoplusia ni High Five cells (virus raised in Sf-9)
protocol description: Cathepsin K inhibition, fluorogenic substrate Cbz-Phe-Arg-AMC, progress curve method
Assay type: biochemical
recorded conditions: Table 1, Inhibition of Cathepsin K (Ki in nM); recombinant human enzyme, 10 μM substrate, pH 5.5, 30° C.; read-out: hCat K IC50
List of IC50 values.

Here is how some molecules turned out for IC50.
>  <cpd smiles>
CCCC[C@H](NC(=O)O[C@H](Cn1ccc(C(F)(F)F)n1)C(C)(C)C)C(=O)CNS(=O)(=O)c1ccccn1

>  <target desc>
human cathepsin K (Homo sapiens)

>  <IC50>
10 to 100 nM

$$$$
>  <cpd smiles>
CC(C)(C)[C@@H](Cn1ccc(-c2ccc(C(F)(F)F)cc2)n1)OC(=O)NCC(=O)CNS(=O)(=O)c1ccccn1

>  <target desc>
human cathepsin K (Homo sapiens)

>  <IC50>
10 to 100 nM

$$$$
>  <cpd smiles>
C[C@H](NC(=O)O[C@H](Cn1cnc2cc(Cl)c(Cl)cc21)C(C)(C)C)C(=O)CNS(=O)(=O)c1ccccn1

>  <target desc>
human cathepsin K (Homo sapiens)

>  <IC50>
< 10 nM

$$$$
>  <cpd smiles>
CCCC[C@H](NC(=O)O[C@H](Cn1cc(-c2ccc(C(F)(F)F)cc2)cn1)C(C)(C)C)C(=O)CNS(=O)(=O)c1ccccn1

>  <target desc>
human cathepsin K (Homo sapiens)

>  <IC50>
10 to 100 nM

$$$$

In: Please list IC50 recorded for the molecule C[C@H](NC(=O)O[C@H](c1nc2cc(C(F)(F)F)ccc2s1)C(C)(C)C)C(=O)CNS(=O)(=O)c1ccccn1
Out: 100 to 1000 nM

* * *

target desc: human cathepsin K (Homo sapiens)
Construct: The proform of cathepsin K was converted to mature cathepsin K by brief exposure to pH 4; made in house; host or cells: baculovirus; Trichoplusia ni High Five cells (virus raised in Sf-9)
protocol description: Cathepsin K inhibition, fluorogenic substrate Cbz-Phe-Arg-AMC, progress curve method
Assay type: biochemical
measured metric: IC50

In: Input CCCC[C@H](NC(=O)O[C@H](Cn1ccc(-c2ccc(C(F)(F)F)cc2)n1)C(C)(C)C)C(=O)CNC(=O)N1CCOCC1 , output reported IC50.
Out: 1 to 10 µM

* * *

Items are presented alongside their recorded IC50.
target desc: human cathepsin S (Homo sapiens, UniProt P25774)
Sequence (P25774 115-331): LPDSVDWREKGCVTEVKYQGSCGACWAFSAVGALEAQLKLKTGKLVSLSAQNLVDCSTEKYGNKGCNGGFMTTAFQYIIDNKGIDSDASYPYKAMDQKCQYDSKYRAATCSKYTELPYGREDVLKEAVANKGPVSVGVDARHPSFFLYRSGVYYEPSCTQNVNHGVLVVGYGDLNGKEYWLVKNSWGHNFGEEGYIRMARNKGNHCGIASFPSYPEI
protocol description: Cathepsin S inhibition, fluorogenic substrate Cbz-Val-Val-Arg-AMC, progress curve method
Type: biochemical
recorded conditions: Table 2, Inhibition of Cathepsins (Ki in nM); recombinant human enzyme, 10 μM substrate, pH 5.5; read-out: hCat S IC50

>  <molecule>
C[C@H](NC(=O)O[C@H](Cn1cnc2cc(Cl)c(Cl)cc21)C(C)(C)C)C(=O)CNS(=O)(=O)c1ccccn1 [Example 16]

>  <IC50>
< 10 nM

$$$$

In: # return IC50 of CCCC[C@H](NC(=O)O[C@@H]1CN(c2nc3ccccc3s2)CC1(C)C)C(=O)CNS(=O)(=O)c1ccccn1 [Example 6] (system: human cathepsin S (Homo sapiens, UniProt P25774))
Out: 10 to 100 nM

* * *

target desc: human cathepsin L (Homo sapiens, UniProt P07711)
Construct: enzyme prepared from human liver tissue; from tissue; host or cells: human liver
Sequence (P07711 114-288 limits assumed): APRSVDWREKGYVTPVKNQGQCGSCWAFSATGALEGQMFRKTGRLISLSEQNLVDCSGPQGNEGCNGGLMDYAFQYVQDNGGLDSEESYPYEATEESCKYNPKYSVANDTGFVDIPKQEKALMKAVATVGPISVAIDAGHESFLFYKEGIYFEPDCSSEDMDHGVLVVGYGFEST
Sequence (P07711 292-333 limits assumed): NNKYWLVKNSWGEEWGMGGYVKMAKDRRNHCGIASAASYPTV
protocol description: Cathepsin L inhibition, fluorogenic substrate Cbz-Phe-Arg-AMC, progress curve method
Assay type: biochemical
recorded conditions: Table 2, Inhibition of Cathepsins (Ki in nM); enzyme from human liver tissue, 5 μM substrate, pH 5.5; read-out: hCat L IC50
Protocol: All assays for cathepsin K were carried out with human and rat recombinant enzyme. Assays for cathepsins S & V were also carried out with human recombinant enzyme. […] All assays contained 10% dimethyl sulfoxide. […] Product fluorescence (excitation at 360 nm; emission at 440 nm, (except cathepsin H which used excitation at 340 nm; emission at 420 nm)) was monitored with a PerSeptive Biosystems Cytofluor II fluorescence plate reader. […] Potential inhibitors were evaluated using the progress curve method. […]
Collected IC50 values appear next to each entry.

>  <cpd smiles>
CCCC[C@H](NC(=O)O[C@@H]1CN(c2nc3ccccc3s2)CC1(C)C)C(=O)CNS(=O)(=O)c1ccccn1

>  <target desc>
human cathepsin L (Homo sapiens, UniProt P07711)

>  <measured metric>
IC50

>  <assay result>
1000 to 10000 nM

$$$$

Please examine the following record next.
In: Dear colleague, please send me the reported IC50 for C[C@H](NC(=O)O[C@H](Cn1cnc2cc(Cl)c(Cl)cc21)C(C)(C)C)C(=O)CNS(=O)(=O)c1ccccn1 when you can.
Out: 10 to 100 nM

* * *

target desc: human cathepsin K (Homo sapiens, UniProt P43235)
Construct: The proform of cathepsin K was converted to mature cathepsin K by brief exposure to pH 4; made in house; host or cells: baculovirus; Trichoplusia ni High Five cells (virus raised in Sf-9)
Sequence (P43235 115-329): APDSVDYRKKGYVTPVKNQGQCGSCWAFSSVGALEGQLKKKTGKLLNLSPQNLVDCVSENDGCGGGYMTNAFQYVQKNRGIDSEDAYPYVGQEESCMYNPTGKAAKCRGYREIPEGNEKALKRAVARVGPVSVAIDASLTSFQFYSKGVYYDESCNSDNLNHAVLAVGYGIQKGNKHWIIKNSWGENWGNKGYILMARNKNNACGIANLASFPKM
protocol description: Cathepsin K inhibition, fluorogenic substrate Cbz-Phe-Arg-AMC, progress curve method
Format: biochemical
recorded conditions: Table 1, Inhibition of Cathepsin K (Ki in nM); recombinant human enzyme, 10 μM substrate, pH 5.5, 30° C.; read-out: hCat K IC50
Experimental: All assays for cathepsin K were carried out with human and rat recombinant enzyme. Assays for cathepsins S & V were also carried out with human recombinant enzyme. […] All assays contained 10% dimethyl sulfoxide. […] Product fluorescence (excitation at 360 nm; emission at 440 nm, (except cathepsin H which used excitation at 340 nm; emission at 420 nm)) was monitored with a PerSeptive Biosystems Cytofluor II fluorescence plate reader. […] Potential inhibitors were evaluated using the progress curve method. […]
The reader will find reported IC50 values listed item by item below.

Some compounds with known IC50 results, for comparison:
>  <cpd smiles>
C[C@H](NC(=O)O[C@H](Cn1ccc(C(F)(F)F)n1)C(C)(C)C)C(=O)CNS(=O)(=O)c1ccccn1

>  <target desc>
human cathepsin K (Homo sapiens, UniProt P43235)

>  <assay result>
100 to 1000 nM

$$$$
>  <cpd smiles>
CCCC[C@H](NC(=O)O[C@H](COc1ccc(-n2ccnc2)cc1)C(C)(C)C)C(=O)CNS(=O)(=O)c1ccccn1

>  <target desc>
human cathepsin K (Homo sapiens, UniProt P43235)

>  <assay result>
< 10 nM

$$$$
>  <cpd smiles>
CCCC[C@H](NC(=O)O[C@H](Cn1cnc2cc(Cl)c(Cl)cc21)C(C)(C)C)C(=O)CNS(=O)(=O)c1ccccn1

>  <target desc>
human cathepsin K (Homo sapiens, UniProt P43235)

>  <assay result>
< 10 nM

$$$$
>  <cpd smiles>
C[C@H](NC(=O)O[C@H](Cn1ccc(-c2ccc(C(F)(F)F)cc2)n1)C(C)(C)C)C(=O)CNS(=O)(=O)c1ccccn1

>  <target desc>
human cathepsin K (Homo sapiens, UniProt P43235)

>  <assay result>
10 to 100 nM

$$$$
>  <cpd smiles>
CCCC[C@H](NC(=O)O[C@H](Cn1ccc(-c2cccnc2)n1)C(C)(C)C)C(=O)CNS(=O)(=O)c1ccccn1

>  <target desc>
human cathepsin K (Homo sapiens, UniProt P43235)

>  <assay result>
< 10 nM

$$$$
>  <cpd smiles>
CCCC[C@H](NC(=O)O[C@H](Cn1ccc(-c2ccncc2)n1)C(C)(C)C)C(=O)CNS(=O)(=O)c1ccccn1

>  <target desc>
human cathepsin K (Homo sapiens, UniProt P43235)

>  <assay result>
< 10 nM

$$$$

Field: next compound
In: Given CCCC[C@H](NC(=O)O[C@H](Cn1ccc(-c2ccc(C(F)(F)F)cc2)n1)C(C)(C)C)C(=O)CNc1cccc(F)n1 , report its IC50 on human cathepsin K (Homo sapiens, UniProt P43235).
Out: < 10 nM

* * *

target desc: human cathepsin K (Homo sapiens, UniProt P43235)
Construct: The proform of cathepsin K was converted to mature cathepsin K by brief exposure to pH 4; made in house; host or cells: baculovirus; Trichoplusia ni High Five cells (virus raised in Sf-9)
Sequence (P43235 115-329): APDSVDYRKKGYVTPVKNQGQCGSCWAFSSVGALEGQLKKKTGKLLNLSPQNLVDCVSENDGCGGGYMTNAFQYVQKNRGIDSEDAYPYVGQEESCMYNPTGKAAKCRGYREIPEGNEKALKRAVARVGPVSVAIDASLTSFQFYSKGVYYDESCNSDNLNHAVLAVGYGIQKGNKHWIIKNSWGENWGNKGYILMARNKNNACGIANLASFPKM
protocol description: Cathepsin K inhibition, fluorogenic substrate Cbz-Phe-Arg-AMC, progress curve method
Format: biochemical
recorded conditions: Table 2, Inhibition of Cathepsins (Ki in nM); recombinant human enzyme, 10 μM substrate, pH 5.5; read-out: hCat K IC50
Description: All assays for cathepsin K were carried out with human and rat recombinant enzyme. Assays for cathepsins S & V were also carried out with human recombinant enzyme. […] All assays contained 10% dimethyl sulfoxide. […] Product fluorescence (excitation at 360 nm; emission at 440 nm, (except cathepsin H which used excitation at 340 nm; emission at 420 nm)) was monitored with a PerSeptive Biosystems Cytofluor II fluorescence plate reader. […] Potential inhibitors were evaluated using the progress curve method. […]
measured metric: IC50

>  <cpd smiles>
C[C@H](NC(=O)O[C@H](Cn1cnc2cc(Cl)c(Cl)cc21)C(C)(C)C)C(=O)CNS(=O)(=O)c1ccccn1

>  <IC50>
< 10 nM

$$$$

Next item in the queue.
In: State measured IC50 of the compound CCCC[C@H](NC(=O)O[C@@H]1CN(c2nc3ccccc3s2)CC1(C)C)C(=O)CNS(=O)(=O)c1ccccn1 with human cathepsin K (Homo sapiens, UniProt P43235).
Out: 100 to 1000 nM
